- tested target: T1, human NPY2 receptor (human, UniProt P49146 1-381)
- T1 sequence (looked up): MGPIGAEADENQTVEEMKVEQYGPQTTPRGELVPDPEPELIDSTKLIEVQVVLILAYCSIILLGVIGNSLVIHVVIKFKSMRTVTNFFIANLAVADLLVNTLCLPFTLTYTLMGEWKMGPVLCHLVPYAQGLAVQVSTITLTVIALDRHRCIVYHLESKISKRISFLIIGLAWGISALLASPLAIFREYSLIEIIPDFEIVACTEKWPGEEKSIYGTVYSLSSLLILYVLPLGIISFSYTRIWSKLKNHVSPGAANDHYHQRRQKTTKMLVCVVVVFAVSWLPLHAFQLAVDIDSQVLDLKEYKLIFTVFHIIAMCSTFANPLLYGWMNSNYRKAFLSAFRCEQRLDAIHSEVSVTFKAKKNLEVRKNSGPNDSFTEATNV
- test protocol: cell-based or functional assay
*1 amine or outer side, *2 acyl side, *3 side chain or, on linkers, in order; H or OH if unused. Side-chain parts run from the residue outwards. The star is where a group is joined. C18 diacid = O=C(O)CCCCCCCCCCCCCCCCC(=O)*; γGlu = O=C(O)[C@H](CCC(=O)[*:2])N[*:1]; Isovaleryl = CC(C)CC(=O)*; Ahx = NCCCCCC(=O)O

| binder | EC50, HTRF cAMP Gi assay |
| --- | --- |
| Isovaleryl-APEK([Ahx-γGlu-C18 diacid])PEADASPEELQRYYVALRHYYNWLTRQRY-NH2 [Compound 163] | 130 pM |
| Isovaleryl-APAK([Ahx-γGlu-C18 diacid])PEEDASPEEIQRYYVSLRHYYNWLTRQRY-NH2 [Compound 63] | 109 pM |
| Isovaleryl-APEK([Ahx-γGlu-C18 diacid])PEADATPEEIQRYYVSLRHYYNWLTRQRY-NH2 [Compound 7] | 143 pM |
| Isovaleryl-APEK([Ahx-γGlu-C18 diacid])PEADASPEEIQRYYIALRHYYNWLTRQRY-NH2 [Compound 40] | 122 pM |
